Taken from patent US20120129842A1.

SYSTEM TESTED: proMMP13(1-268) (SEQ ID NO:7) (Homo sapiens)
ASSAY NAME: ThermoFluor binding assay with proMMP13(1-268)
EXPERIMENTAL PARAMETERS: pH 7.0
Description: The ThermoFluor® (TF) assay is a 384-well plate-based binding assay that measures thermal stability of proteins (Biomol Screen 2001, 6, 429-40; Biochemistry 2005, 44, 5258-66). The experiments were carried out using instruments available from Johnson & Johnson Pharmaceutical Research & Development, LLC. TF dye used in all experiments was […] (1,8-ANS) (Invitrogen: A-47). […]
pKd: −log10 of the molar value.
Answer Condition not met if pKd is under 6, and Condition met if it is 6 or more.

{"columns": ["SMILES TEXT", "LABEL VALUE"],
 "data": [
  ["Cc1ccc(C(N)=O)cc1Nc1nc(-c2sc(N)nc2C)cs1", "Condition not met"],
  ["Cc1nc(C)c(-c2csc(Nc3cc(C(N)=O)ccc3OC(F)(F)F)n2)s1", "Condition not met"],
  ["Cc1nc(N2CCN(C)CC2)sc1-c1csc(Nc2cc(S(N)(=O)=O)ccc2OC(C)C)n1", "Condition met"],
  ["Cc1nc(C)c(-c2csc(Nc3cc(C(N)=O)ccc3OC(C)C)n2)s1", "Condition met"],
  ["CCOc1ccc(C(N)=O)cc1Nc1nc(-c2sc(C(=O)N3CCCN(CC)CC3)nc2C)cs1", "Condition not met"],
  ["CCOc1ccc(C(N)=O)cc1Nc1nc(-c2sc(NC(C)=O)nc2C)cs1", "Condition not met"],
  ["COc1ccc(C(=O)NCCN2CCCCC2)cc1Nc1nc(-c2sc(NC(C)=O)nc2C)cs1", "Condition not met"]
]}

* * *

# log10(IC50) annotations
SYSTEM TESTED: full-length proMMP9(1-707) (SEQ ID NO:1) (Homo sapiens, UniProt P14780, R574P)
Construct: made in house; host or cells: HEK293 (proMMP9, secreted); E. coli (MMP3)
Sequence (P14780 20-707 R574P): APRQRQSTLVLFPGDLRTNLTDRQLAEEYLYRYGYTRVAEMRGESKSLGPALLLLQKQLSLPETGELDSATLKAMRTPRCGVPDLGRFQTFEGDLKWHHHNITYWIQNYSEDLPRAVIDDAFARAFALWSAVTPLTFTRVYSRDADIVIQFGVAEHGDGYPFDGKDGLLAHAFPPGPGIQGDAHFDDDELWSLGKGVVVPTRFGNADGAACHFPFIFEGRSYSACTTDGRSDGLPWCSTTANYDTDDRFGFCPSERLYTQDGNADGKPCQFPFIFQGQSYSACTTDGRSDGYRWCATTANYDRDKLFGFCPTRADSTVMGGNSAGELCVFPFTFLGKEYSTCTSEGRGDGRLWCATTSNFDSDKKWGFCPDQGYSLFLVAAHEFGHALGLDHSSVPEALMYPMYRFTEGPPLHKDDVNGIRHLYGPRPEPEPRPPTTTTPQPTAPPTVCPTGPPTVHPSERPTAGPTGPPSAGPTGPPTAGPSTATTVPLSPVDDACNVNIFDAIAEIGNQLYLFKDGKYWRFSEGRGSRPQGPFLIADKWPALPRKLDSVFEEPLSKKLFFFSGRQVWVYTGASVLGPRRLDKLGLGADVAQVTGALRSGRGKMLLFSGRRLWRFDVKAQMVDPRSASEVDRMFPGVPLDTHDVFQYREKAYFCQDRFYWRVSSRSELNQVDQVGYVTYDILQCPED
ASSAY NAME: proMMP9/MMP3 P126 Activation Assay
Format: biochemical
EXPERIMENTAL PARAMETERS: 20 nM proMMP9, 20 nM MMP3, 80 min 37° C.
MEASURE: log10(IC50) (log10 of the value in nM)

{"columns": ["SMILES TEXT", "SYSTEM TESTED", "REPORTED"],
 "data": [
  ["Cc1nc(Nc2ccncc2)sc1-c1csc(Nc2cc(C(N)=O)ccc2OC(C)C)n1", "full-length proMMP9(1-707) (SEQ ID NO:1) (Homo sapiens, UniProt P14780, R574P)", 2.53],
  ["CCS(=O)(=O)c1ccc(OC)c(Nc2nc(-c3sc(C)nc3C)cs2)c1", "full-length proMMP9(1-707) (SEQ ID NO:1) (Homo sapiens, UniProt P14780, R574P)", 3.61],
  ["Cc1nc(C(=O)N2CCC(N(C)C)CC2)sc1-c1csc(Nc2cc(C(N)=O)ccc2OC(C)C)n1", "full-length proMMP9(1-707) (SEQ ID NO:1) (Homo sapiens, UniProt P14780, R574P)", 2.30],
  ["Cc1nc(C(=O)NC2CCN(C)CC2)sc1-c1csc(Nc2cc(C(N)=O)ccc2OC(C)C)n1", "full-length proMMP9(1-707) (SEQ ID NO:1) (Homo sapiens, UniProt P14780, R574P)", 2.76],
  ["Cc1nc(C)c(-c2nc(Nc3cc(S(N)(=O)=O)ccc3OC(C)C)sc2F)s1", "full-length proMMP9(1-707) (SEQ ID NO:1) (Homo sapiens, UniProt P14780, R574P)", 3.18]
]}
